For each of the molecules below, state its GI50.
Tested on: SNB-78
Assay: NCI tumour cell line growth inhibition, 48 h
The source made the active and inactive calls. Cut-off read from the data, not from the text of the source: active = GI50 up to about 1.1 µM and inactive = higher.

Guide cases for GI50, answers given:
INSERT INTO assay_data (molecule, result) VALUES
  ('CCOC(=O)/C(Br)=C1/OC(=O)c2ccccc2-c2ccccc21.CCOC(=O)/C(Br)=C1\OC(=O)c2ccccc2-c2ccccc21', '20.6 µM (inactive)'),
  ('CCOC(=O)/N=C(\N)SCc1ccccc1', '> 100 µM (inactive)');

Each of the following entries comes with a recorded value; kindly state GI50 for each.
1. Cc1cc(C)nc(Nc2nc3cc([N+](=O)[O-])ccc3[nH]2)n1
2. CCSC(=O)N1c2ccc(OC)cc2C=CC1C#N (stereo unspecified)
3. Nc1ccc(Cn2ccc3c4c(N)nc(N)nc4ccc32)cc1
4. COC(=O)/C(C)=C/[N+](=O)[O-]

output:
> 100 µM (inactive)
51.8 µM (inactive)
7.35 µM (inactive)
21.1 µM (inactive)
